The values you see were collected from patent US6620828B2.

# TARGET_ENTITY: FL-CHK1 (Homo sapiens, UniProt O14757)
# Construct: C-terminally His-tagged full-length human CHK1 (FL-CHK1); 6xHis (C); made in house; host or cells: baculovirus/insect cells
# Sequence (O14757 whole entry): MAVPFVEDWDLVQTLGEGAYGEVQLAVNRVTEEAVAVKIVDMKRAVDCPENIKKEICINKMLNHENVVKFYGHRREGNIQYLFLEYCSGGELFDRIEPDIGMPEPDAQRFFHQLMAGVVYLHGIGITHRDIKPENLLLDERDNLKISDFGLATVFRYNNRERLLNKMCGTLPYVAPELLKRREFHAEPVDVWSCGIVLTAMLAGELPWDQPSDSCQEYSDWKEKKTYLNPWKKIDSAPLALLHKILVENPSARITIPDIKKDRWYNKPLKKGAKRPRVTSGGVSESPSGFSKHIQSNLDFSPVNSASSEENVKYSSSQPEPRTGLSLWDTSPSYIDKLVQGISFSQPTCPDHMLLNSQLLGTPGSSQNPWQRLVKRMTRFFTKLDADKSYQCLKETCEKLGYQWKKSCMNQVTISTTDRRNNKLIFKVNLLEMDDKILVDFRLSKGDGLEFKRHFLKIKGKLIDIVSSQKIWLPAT
# ASSAY_OVERVIEW: CHK1 assay
# Format: biochemical
# ASSAY_SETUP: 20 μM; combinatorial library compounds
# Source text: CHK-1 Construct for Assay: C-terminally His-tagged full-length human CHK1 (FL-CHK1) was expressed using the baculovirus/insect cell system. It contains 6 histidine residues (6×His-tag) at the C-terminus of the 476 amino acid human CHK1. The protein was purified by conventional chromatographic techniques. […]
Readings of inhibition at 20 µM for the listed compounds

{"columns": ["COMPOUND", "inhibition at 20 µM [%]"],
 "data": [
  ["Nc1nc(Nc2ccc(S(N)(=O)=O)cc2)sc1-c1nc(-c2ccc(Cl)cc2)cs1", 4.4],
  ["CC(C)c1ccc(Nc2nc(N)c(-c3nc(-c4cc(-c5ccccc5)no4)cs3)s2)cc1", -4.7],
  ["Cc1ccc(-c2csc(-c3sc(Nc4ccc(C(C)C)cc4)nc3N)n2)cc1", 0.8],
  ["Cc1ccc(-c2csc(-c3sc(Nc4ccc(N(C)C)cc4)nc3N)n2)cc1", 15.2],
  ["CN(C)c1ccc(Nc2nc(N)c(-c3nc(-c4ccc([N+](=O)[O-])cc4)cs3)s2)cc1", 17.8],
  ["Cc1c(C)c(C)c(-c2csc(-c3sc(Nc4ccc(N(C)C)cc4)nc3N)n2)c(C)c1C", 37],
  ["COc1ccc(OC)c(-c2csc(-c3sc(Nc4ccc(S(N)(=O)=O)cc4)nc3N)n2)c1", -2.3],
  ["CC(C)c1ccc(Nc2nc(N)c(-c3nc(-c4ccc(OC(=O)c5ccccc5)cc4)cs3)s2)cc1", 7.5],
  ["Nc1nc(Nc2ccc(S(N)(=O)=O)cc2)sc1-c1nc(-c2ccc([N+](=O)[O-])cc2)cs1", 11],
  ["CN(C)c1ccc(Nc2nc(N)c(-c3nc(-c4c(Cl)c(Cl)nc(Cl)c4Cl)cs3)s2)cc1", 41.4],
  ["CN(C)c1ccc(Nc2nc(N)c(-c3nc(-c4cc(-c5ccccc5)no4)cs3)s2)cc1", 0.8],
  ["Cc1c(-c2csc(-c3sc(Nc4ccc(C(C)C)cc4)nc3N)n2)sc2ccc(Cl)cc12 [drawing 487]", 32.3],
  ["Cc1cc(-c2csc(-c3sc(Nc4ccc(C(C)C)cc4)nc3N)n2)cc(C)c1O", 5.1],
  ["CC(C)c1ccc(Nc2nc(N)c(-c3nc(-c4ccc5c(c4)OCCO5)cs3)s2)cc1", 23.8],
  ["CN(C)c1ccc(Nc2nc(N)c(-c3nc(-c4c(Cl)cc(C(F)(F)F)cc4Cl)cs3)s2)cc1", 37.5],
  ["CC(C)c1ccc(Nc2nc(N)c(-c3nc(-c4ccc(F)c(F)c4)cs3)s2)cc1", 10.9],
  ["Cc1c(F)cc(-c2csc(-c3sc(Nc4ccc(C(C)C)cc4)nc3N)n2)cc1Cl", 22.8],
  ["Cc1c(-c2csc(-c3sc(Nc4ccc(S(N)(=O)=O)cc4)nc3N)n2)sc2ccccc12", 5.6],
  ["COc1ccc(-c2csc(-c3sc(Nc4ccc(N(C)C)cc4)nc3N)n2)c(OC)c1", 3.1],
  ["Nc1nc(Nc2ccc(S(N)(=O)=O)cc2)sc1-c1nc(-c2ccc(F)c(F)c2)cs1", 17.5],
  ["Nc1nc(Nc2ccc(S(N)(=O)=O)cc2)sc1-c1nc(-c2ccc3c(c2)CCC(=O)N3)cs1", 15.3],
  ["CN(C)c1ccc(Nc2nc(N)c(-c3nc(-c4ccc5ccccc5c4)cs3)s2)cc1", 19.6]
]}
